Origin of values: PubChem BioAssay

system: wheat germ agglutinin (Triticum aestivum), Alexa647-labelled; assay: wheat germ agglutinin binders on compound microarrays, profiling panel, artefact control for SMM control-protein annotation, biochemical, small-molecule microarray, 635/667 nm fluorescence (AID 1140); settings: WGA-A647 binding, 635 nm fluorescence, higher = more signal;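 also: score merges 667 nm feature emission with signal to noise over triplicate slides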
Rule: composite z-score under 0.2 gives -1, otherwise 1.

{"columns": ["Molecule", "Label Class"],
 "data": [
  ["C=C(COC)/C(=C/C[C@H](OC(=O)c1ccncc1)c1cccc(OCCO)c1)c1cnc2ccccc2c1", 1],
  ["Cc1ccc(S[C@]2(C(=O)NCC(F)(F)F)CC(=O)N(C3CCCCC3)[C@@H]2c2ccc(CO)cc2)cc1", 1],
  ["COCCOC(=O)N1C(=O)[C@@]2(c3cc(C#CC4(O)CCCCCC4)ccc31)[C@H](c1ccc(OCCO)cc1)N1[C@H](c3ccccc3)[C@H](c3ccccc3)OC(=O)[C@H]1[C@@H]2C(N)=O", 1],
  ["C=CCC(OC(C)=O)[C@@H]1[C@@H](N(Cc2ccc(-c3ccccc3)cc2)C(=O)c2ccc(C)cc2)c2cc(OCCCO)ccc2N1C(=O)c1ccc2ccccc2c1 (some centres not stated)", -1],
  ["C[N+](C)(C)CCCCCCNC(=O)[C@H]1C[C@H]2C(=O)NCC(=O)N2[C@H]1c1cccc(OCCO)c1", 1]
]}

IN: Hello, I need to know if CCCCC=C[C@@H](NC(=O)c1ccc(C(F)(F)F)cc1)c1ccccc1 has measured composite z-score not below 0.2. Thanks!
OUT: -1

IN: Could you verify whether the entry COc1cccc(C[C@H]2C[C@@H](CO[Si](C(C)C)(C(C)C)C(C)C)N3C(=O)[C@@]4(C(C)=O)O[C@@]23[C@@H]2C(=O)N(C)C(=O)[C@@H]24)c1 shows composite z-score of no less than 0.2?
OUT: 1
